# Test system: human red blood cells
# Test summary: Hemolytic assay
# Assay type: cell-based
# Conditions used: red cells of human
Ends that are not written are not given here.
Measured attribute: pEC50
The read-out pEC50 is expressed as -log10 of concentration in moles per litre.

PAWRKAFRWAWRMLKKAA-OH [LFB 14-31A2,6, 10, 17F7K16L14R4] | 3.96

(Q) Form field: reported pEC50 of PAWRKAFRAAWRMLKKAA-OH [LFB 14-31A2,6,9, 10, 17F7K16L14R4]
(A) 3.42

---

# Test system: human red blood cells
# Test summary: Hemolytic assay
# Type: cell-based
# Conditions used: red cells of human, 10
Peptide text beside a SMILES is read from it. * marks the point of attachment. Acm = CC(=O)NC*
Returns: string. Value is y if measured % Hemolysis 10 μg/ml is below 3%, and n if it is greater than or equal to it.

Below, 3 compounds whose answers are already recorded.
CSCC[C@H](NC(=O)[C@H](CCCNC(=N)N)NC(=O)[C@H](Cc1c[nH]c2ccccc12)NC(=O)[C@H](CCC(N)=O)NC(=O)[C@H](Cc1c[nH]c2ccccc12)NC(=O)[C@H](CCCNC(=N)N)NC(=O)[C@H](CCCNC(=N)N)NC(=O)[C@H](Cc1c[nH]c2ccccc12)NC(=O)[C@H](CCCCN)NC(=O)[C@@H](N)Cc1ccccc1)C(=O)N[C@@H](CCCCN)C(=O)N[C@@H](CCCCN)C(=O)N[C@@H](CC(C)C)C(=O)NCC(=O)N[C@@H](C)C(=O)O | y
CSCC[C@H](NC(=O)[C@H](C)NC(=O)[C@H](Cc1c[nH]c2ccccc12)NC(=O)[C@H](CCC(N)=O)NC(=O)[C@H](Cc1c[nH]c2ccccc12)NC(=O)[C@H](CCCNC(=N)N)NC(=O)[C@H](CC(C)C)NC(=O)[C@H](CSCNC(C)=O)NC(=O)[C@H](CCCCN)NC(=O)[C@H](C)N)C(=O)N[C@@H](CCCNC(=N)N)C(=O)N[C@@H](CCCCN)C(=O)N[C@H](C(=O)NCC(=O)NCC(=O)O)C(C)C [LFM A1, 9 W8] (H-AKC(Acm)LRWQWAMRKVGG-OH; N-terminus assumed) | y
CC(=O)NCSC[C@H](NC(=O)[C@H](CCCCN)NC(=O)[C@@H](N)Cc1ccccc1)C(=O)N[C@@H](Cc1c[nH]c2ccccc12)C(=O)N[C@@H](CCCNC(=N)N)C(=O)N[C@@H](Cc1c[nH]c2ccccc12)C(=O)N[C@@H](CCC(N)=O)C(=O)N[C@@H](Cc1c[nH]c2ccccc12)C(=O)N[C@@H](CCCNC(=N)N)C(=O)N[C@@H](Cc1c[nH]c2ccccc12)C(=O)N[C@@H](CCCCN)C(=O)N[C@@H](CCCCN)C(=O)N[C@@H](CC(C)C)C(=O)NCC(=O)N[C@@H](C)C(=O)O [LFB W4, 10] (H-FKC(Acm)WRWQWRWKKLGA-OH) | n

(Q) Determine if CSCC[C@H](NC(=O)[C@H](CCCNC(=N)N)NC(=O)[C@H](Cc1c[nH]c2ccccc12)NC(=O)[C@H](CCC(N)=O)NC(=O)[C@H](Cc1c[nH]c2ccccc12)NC(=O)[C@H](CCCNC(=N)N)NC(=O)[C@H](CC(C)C)NC(=O)[C@H](CSCNC(C)=O)NC(=O)[C@H](CCCCN)NC(=O)[C@@H](N)CCC(=O)O)C(=O)N[C@@H](CCCNC(=N)N)C(=O)N[C@@H](CCCCN)C(=O)N[C@H](C(=O)NCC(=O)NCC(=O)O)C(C)C [LFM R9 W8] (H-EKC(Acm)LRWQWRMRKVGG-OH; N-terminus assumed) shows % Hemolysis 10 μg/ml strictly lower than 3%.
(A) n
